System: ISC-enriched organoids
Assay: Primary screen, 384-well 2.5-D organoid differentiation (ENR+CD, 6 days): carbachol-induced lysozyme secretion (LYZ.S)
Format: cell-based, murine
Settings: strictly standardized mean difference; primary screen; 2nd of the 4 dose lines of the treatment (dose not given)
Counter-ions that a name gives are not always drawn.
Give measured SSMD.LYZ.S for each item. Keep answers brief.
One number for each entry.

CCOC(=O)[C@H](CCc1ccccc1)N[C@@H](C)C(=O)N1C(=O)N(C)C[C@H]1C(=O)O [Imidapril HCl]	0.315
COc1cc(-c2ncn(/C=C\C(=O)OC(C)C)n2)cc(C(F)(F)F)c1 [KPT-185]	0.978
CCN1CCC[C@H]1CNC(=O)c1cc(S(N)(=O)=O)ccc1OC [Levosulpiride]	0.774

Now for a further compound.
// SSMD.LYZ.S lookup, key: Cl.Cl.O=S(=O)(NCCNC/C=C/c1ccc(Br)cc1)c1cccc2cnccc12 [H 89 2HCl]
0.703
